The reader will find reported koff values listed item by item below.
Biological target: T1, recombinant human IL-12 (rhIL-12) (human, UniProt P29459 23-219; P29460 23-328)
T1 chain 1: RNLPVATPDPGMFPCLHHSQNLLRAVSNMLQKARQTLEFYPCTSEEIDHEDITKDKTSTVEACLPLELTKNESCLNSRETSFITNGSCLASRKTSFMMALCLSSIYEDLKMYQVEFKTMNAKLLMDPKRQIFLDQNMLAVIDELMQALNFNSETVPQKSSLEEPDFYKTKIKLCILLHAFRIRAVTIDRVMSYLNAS
T1 chain 2: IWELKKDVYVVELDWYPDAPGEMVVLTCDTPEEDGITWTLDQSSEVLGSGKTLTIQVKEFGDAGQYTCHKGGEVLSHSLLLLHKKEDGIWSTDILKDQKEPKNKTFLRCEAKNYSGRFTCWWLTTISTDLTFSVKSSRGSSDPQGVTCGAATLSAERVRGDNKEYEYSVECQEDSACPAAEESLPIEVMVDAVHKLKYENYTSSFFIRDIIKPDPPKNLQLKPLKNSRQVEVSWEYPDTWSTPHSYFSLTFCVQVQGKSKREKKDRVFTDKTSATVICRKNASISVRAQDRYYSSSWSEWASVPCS
Experiment: BIAcore
The figure you give is taken to be in s⁻¹; do not add the unit.

// known answers, use as guide
INSERT INTO assay_data (binder, unitlabel, valuereported) VALUES
  ('DNDQRPS [Y61 L50 D]', 's⁻¹', 0.000348),
  ('GNDPRPS [Y61 L53 P]', 's⁻¹', 0.000974),
  ('VNDQRPS [Y61 L50 V]', 's⁻¹', 0.000385),
  ('CNDQRPS [Y61 L50 C]', 's⁻¹', 0.000467),
  ('NNDQRPS [Y61 L50 N]', 's⁻¹', 0.000305),
  ('RNDQRPS [Y61 L50 R]', 's⁻¹', 0.000444),
  ('ENDQRPS [Y61 L50 E]', 's⁻¹', 0.000617),
  ('QNDQRPS [Y61 L50 Q]', 's⁻¹', 0.000348);

Record MNDQRPS [Y61 L50 M] , field koff: 0.000953

# koff of GNDARPS [Y61 L53 A] = 0.000554

Entry under test: GNDSRPS [Y61 L53 S] . Its koff was 0.000866

Notebook: GNDTRPS [Y61 L53 T] , koff read as 0.000834
